Where these numbers come from: patent US9499711B2

# assay.comment: physchem
metric.name: logP
# print the numeric value only

Incoming: Value lookup for logP; key = CCCCCO [1-pentanol]
Outgoing: 1.4

* * *

# assay.comment: physchem
# applied.conditions: logP value of organic compound
metric.name: logP
# print the numeric value only

Known logP results, listed for orientation:
compound	logP
CCCC(O)C(CC)CO (stereo not drawn) [2-Ethyl-1,3-hexane diol]	1.6
CCOCCOCCOCCO [Triethylene glycol monoethyl ether]	-2.75

# context switch: different compound, same logP
Incoming: Value lookup for logP; key = CCCOC(C)COC(C)CO (stereo not drawn) [Dipropylene glycol monopropyl ether]
Outgoing: 0.6

* * *

# assay.comment: physchem
# applied.conditions: log P value
metric.name: logP
# print the numeric value only

Incoming: Value lookup for logP; key = `CCOCCOCCOCC`
Outgoing: 0.39

Incoming: Value lookup for logP; key = `CCCCCCOCCOCCO`
Outgoing: 1.7

Incoming: Value lookup for logP; key = `CCCCOCCOCCO`
Outgoing: 0.56

Incoming: Value lookup for logP; key = CCCOCC(C)O (stereo not shown)
Outgoing: 0.62

Incoming: Value lookup for logP; key = CCCCOCC(C)O (stereo not shown)
Outgoing: 1.15

Incoming: Value lookup for logP; key = `CCCCCCOCCO`
Outgoing: 1.7

* * *

# assay.comment: physchem
# applied.conditions: log P value
metric.name: logP

Known logP results, listed for orientation:
compound	logP
CCCCOC(C)COC(C)COC(C)CO (stereo not shown) [tripropylene glycol monobutyl ether]	1.34
CC(C)(O)CCO [3-methyl-1,3-butanediol]	0.16
CCOCC(C)O (stereo not shown) [propylene glycol monoethyl ether]	0.3

# context switch: different compound, same logP
Incoming: Value lookup for logP; key = CCCOC(C)COC(C)CO (stereo not shown) [Dipropylene glycol monopropyl ether]
Outgoing: 0.87
